test system: DU-145 prostate; test: NCI tumour cell line growth inhibition, 48 h

>  <SUBSTANCE SMILES>
CCC(=O)c1ccc2[nH]c3c(C)c4c(=O)cc(C)[nH]c4c(C)c3c2c1

>  <ASSAY SYSTEM>
DU-145 prostate

>  <TGI>
> 100 µM

$$$$
>  <SUBSTANCE SMILES>
COc1ccc(C(=O)c2cc(OC)c(OC)c(OC)c2)cc1/C=C/C(=O)c1ccc(OC)c(OC)c1

>  <ASSAY SYSTEM>
DU-145 prostate

>  <TGI>
> 100 µM

$$$$
>  <SUBSTANCE SMILES>
Cc1ccc(-c2cc(C(F)(F)F)nn2-c2ccc(S(N)(=O)=O)cc2)cc1

>  <ASSAY SYSTEM>
DU-145 prostate

>  <TGI>
> 57.7 µM

$$$$
